# Tested on: SR
# Test details: NCI growth inhibition and cytotoxicity screen, Leukemia panel
# Run parameters: Homo sapiens, read-out: LC50
Recorded measurements of CC50, one per entry

**Q:** Record request: CC50 value, item COc1cc(/C(C#N)=C\c2cc3ccccc3s2)cc(OC)c1OC [Formula (I)(a)]
**A:** > 100 µM

**Q:** Record request: CC50 value, item COc1cc(/C=C/c2cc3ccccc3o2)cc(OC)c1OC [Formula (I)(c)]
**A:** > 100 µM

**Q:** Record request: CC50 value, item COc1cc(/C=C/c2nc3ccccc3s2)cc(OC)c1OC [Formula (I)(d)]
**A:** > 100 µM

**Q:** Record request: CC50 value, item COc1cc(OC)cc(/C(C#N)=C/c2c[nH]c3ccccc23)c1 [Formula (I)(b)]
**A:** > 100 µM

**Q:** Record request: CC50 value, item COc1cc(/C(C#N)=C/c2cnc3ccccc3c2)cc(OC)c1OC [PNR-5-10]
**A:** > 100 µM

====

# Tested on: LOX-IMVI
# Test details: NCI growth inhibition and cytotoxicity screen, Melanoma panel
# Run parameters: Homo sapiens, read-out: LC50
Recorded measurements of CC50, one per entry

Molecule	CC50
COc1cc(OC)cc(/C(C#N)=C/c2ccc3ccccc3n2)c1 [PNR-4-84]	> 100 µM
COc1cc(/C(C#N)=C/c2cnc3ccccc3c2)cc(OC)c1OC [PNR-5-10]	> 100 µM

Now take the following molecule into account.
**Q:** Record request: CC50 value, item COc1cc(OC)cc(/C(C#N)=C/c2c[nH]c3ccccc23)c1 [Formula (I)(b)]
**A:** > 100 µM

====

# System: BT-549
# Test details: NCI growth inhibition and cytotoxicity screen, Breast Cancer panel
# Run parameters: Homo sapiens, BT-549, read-out: LC50
Outcome measure: CC50 (µM)
Response body: numeric value in µM, unit text excluded.

**Q:** Record request: CC50 value, item COc1cc(/C=C/c2nc3ccccc3s2)cc(OC)c1OC
**A:** 58.8

**Q:** Record request: CC50 value, item COc1cc(OC)cc(/C(C#N)=C/c2ccc3ccccc3n2)c1
**A:** 80.6

====

# Tested on: KM12
# Test details: NCI growth inhibition and cytotoxicity screen, Colon Cancer panel
# Run parameters: Homo sapiens, KM12, read-out: LC50
Outcome measure: CC50

COc1cc(OC)cc(/C(C#N)=C/c2cnc3ccccc3c2)c1 > 100 µM
COc1cc(/C(C#N)=C/c2cnc3ccccc3c2)cc(OC)c1OC > 100 µM
COc1cc(/C=C/c2nc3ccccc3s2)cc(OC)c1OC 41.6 µM
COc1cc(/C(C#N)=C\c2cc3ccccc3s2)cc(OC)c1OC > 100 µM

Now take the following compound into account.
**Q:** Record request: CC50 value, item COc1cc(/C=C/c2cc3ccccc3o2)cc(OC)c1OC
**A:** > 100 µM
